System: LUHMES cells
assay.name: MitoMet (UKN4b) neurite outgrowth assay
Format: cell-based, human
measurement.context: Homo sapiens; benchmark response 25%, neurite area, 24 h exposure, three independent experiments; read-out: BMC25 neurite outgrowth
Procedure: Figure 1 (A) A strategy scheme to assess metabolite-mediated hazard in NAMs used for neurotoxicity or developmental neurotoxicity. Parent and metabolite compounds are tested separately in the respective assay. […] Neurite outgrowth and viability were determined 24 h later, using automated high content imaging. […] In each independent experiment, the technical replicates were measured and averaged. […] Similar images are used for neurite quantification. […]
Kindly apply the following: 1.0 if IC25 is less than 4 µM, 0.0 in every other case.

Previously resolved entries follow.
Task: State whether 4 µM exceeds IC25 recorded for COC(=O)Nc1nc2ccccc2[nH]1 .
Result: 0.0

Task: Please determine if CNC(C)Cc1ccc2c(c1)OCO2 (stereo not drawn) is below 4 µM in terms of IC25.
Result: 0.0

Task: # strict comparison: is reported IC25 < 4 µM? input = CCCCNC(=O)n1c(NC(=O)OC)nc2ccccc21
Result: 1.0

Task: Consider the molecule O=C(CCC[n+]1ccc(-c2ccc(Cl)cc2)cc1)c1ccc(F)cc1 . Is its IC25 strictly less than 4 µM?
Result: 0.0

Task: In the record for O=C(c1ccccc1)c1ccc(O)cc1 [4-Hydroxybenzophenone] , is IC25 less than 4 µM?
Result: 0.0

Task: State whether 4 µM exceeds IC25 recorded for CCOCn1c(-c2ccc(Cl)cc2)c(C#N)c(Br)c1C(F)(F)F .
Result: 0.0

Task: Hi there! Is IC25 for CN1CC=C(c2ccccc2)CC1 [MPTP, 1-methyl-4-phenyl-tetrahydropyridine] below 4 µM, do you know?
Result: 0.0

Task: Is IC25 of C[C@H]1[C@@H](O)O[C@@H]2O[C@@]3(C)CC[C@H]4[C@H](C)CC[C@@H]1[C@@]24OO3 [Dihydroartemisinin] strictly below 4 µM?
Result: 1.0

Others:
Task: For N#Cc1c(-c2ccc(Cl)cc2)[nH]c(C(F)(F)F)c1Br , is the recorded IC25 below the cut-off of 4 µM?
Result: 1.0

Task: Find out if reported IC25 for COC(=O)Nc1nc2ccc(Sc3ccccc3)cc2[nH]1 is less than 4 µM
Result: 1.0

Task: Is the reported IC25 for C[C@H]1[C@H](OC(=O)CCC(=O)O)O[C@@H]2O[C@@]3(C)CC[C@H]4[C@H](C)CC[C@@H]1[C@@]24OO3 [Artesunate] strictly below 4 µM?
Result: 1.0

Task: I'd appreciate it if you could check whether O=C(c1ccccc1)c1ccccc1 has IC25 smaller than 4 µM.
Result: 0.0

Task: Dear colleague, could you confirm whether IC25 of CC(N)Cc1ccc(O)c(O)c1 (stereo not drawn) falls below 4 µM? Thanks.
Result: 0.0

Task: Threshold test, IC25 < 4 µM: O=C(CCCN1CCC(O)(c2ccc(Cl)cc2)CC1)c1ccc(F)cc1
Result: 0.0

Task: Take the molecule C[n+]1ccc(-c2ccccc2)cc1 and say whether its IC25 is less than 4 µM.
Result: 1.0

The measured values listed here are drawn from paper PMC12428754.
